- TARGET UNDER TEST: furin, P09958;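 also: purified furin at 1:10 enzyme:substrate in 50 mM HEPES pH 7.5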
- Sequence (P09958 whole entry): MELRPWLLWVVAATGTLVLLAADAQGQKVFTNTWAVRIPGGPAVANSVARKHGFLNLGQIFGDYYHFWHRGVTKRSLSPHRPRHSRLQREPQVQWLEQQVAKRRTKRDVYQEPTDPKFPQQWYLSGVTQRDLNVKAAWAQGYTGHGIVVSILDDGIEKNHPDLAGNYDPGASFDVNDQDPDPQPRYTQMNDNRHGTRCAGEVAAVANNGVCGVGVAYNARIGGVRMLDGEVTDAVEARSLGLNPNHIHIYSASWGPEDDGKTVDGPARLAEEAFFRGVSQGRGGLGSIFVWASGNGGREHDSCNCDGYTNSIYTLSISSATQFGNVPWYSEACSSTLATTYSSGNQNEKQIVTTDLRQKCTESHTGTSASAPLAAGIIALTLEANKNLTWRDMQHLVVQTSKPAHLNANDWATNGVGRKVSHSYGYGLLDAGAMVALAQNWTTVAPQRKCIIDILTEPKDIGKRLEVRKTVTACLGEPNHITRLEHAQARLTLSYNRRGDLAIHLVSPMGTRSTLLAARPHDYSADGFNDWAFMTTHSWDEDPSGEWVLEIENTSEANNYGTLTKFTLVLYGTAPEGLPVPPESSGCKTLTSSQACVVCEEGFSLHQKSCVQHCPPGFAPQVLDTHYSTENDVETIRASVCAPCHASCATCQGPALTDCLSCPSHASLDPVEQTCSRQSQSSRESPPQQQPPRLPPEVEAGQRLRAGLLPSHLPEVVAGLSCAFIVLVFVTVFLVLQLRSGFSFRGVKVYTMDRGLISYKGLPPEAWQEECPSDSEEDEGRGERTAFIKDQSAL
- MEASUREMENT NOTES: furin cleavage Z-score vs untreated control; higher = more cleavage, active = 3.5 or more, inactive = 1 or less, 8 variable residues between constant flanks
- SETTINGS: 30 min
Some of the results follow. The hit rate among all sequences tested is not known here.
Give one outcome, nothing more. List: yes = active, no = inactive

Some solved entries appear below for comparison.
# MONOMER SEQUENCE, GROUP
records = [
    ("CAPREVPCHRAGNASASA [HC2439]", "no"),
    ("CAVTKRSLSPAGNASASA [FS-2115]", "yes"),
    ("CALPNREDRAAGNASASA [FS-54]", "no"),
    ("CARRKRAGGGAGNASASA [FS-2067]", "yes"),
    ("CAQTSRNTRSAGNASASA [FS-184]", "yes"),
]

Hi team, can someone confirm the assay call for CAQGTRFKRAAGNASASA [FS-847] ?
yes

Kindly provide the recorded test outcome for the following sequence: CAEVVTSTWQAGNASASA [HC2262]
no

Each sequence tested received a call. Report the one for CARLRRGQCPAGNASASA [FS-1744] .
no

Look up the recorded call for CAPKGRPKRAAGNASASA [FS-1047] in this test.
yes

# lookup: test call for CARRKRKSQRAGNASASA [FS-2402]
yes

Returns: the outcome recorded for CARSKRALKQAGNASASA [FS-2604] in this assay.
yes

Hello, I am checking results. What call was entered for CAQTSRSNRFAGNASASA [FS-852] ?
no

Hi, do you know how CAVLAGIAYFAGNASASA [HC338] came out in this test?
no

What outcome does the record of this test show for CARLRRGGDPAGNASASA [FS-2574] ?
no
